# ASSAY REMARKS: in vitro
# Assay type: in vitro ADME, human
# ASSAY SETUP: human

{"COMPOUND": "O=C(O)Cc1ccccc1Nc1c(Cl)cccc1Cl", "Papp A→B at 2 h [×10⁻⁶ cm/s]": 9.82}
{"COMPOUND": "CC(C)NCC(O)COc1cccc2ccccc12 (stereo not shown)", "Papp A→B at 2 h [×10⁻⁶ cm/s]": 11}
{"COMPOUND": "CNC(=C[N+](=O)[O-])NCCSCc1ccc(CN(C)C)o1", "Papp A→B at 2 h [×10⁻⁶ cm/s]": 6.98}
{"COMPOUND": "COCCc1ccc(OCC(O)CNC(C)C)cc1 (stereo not shown)", "Papp A→B at 2 h [×10⁻⁶ cm/s]": 11.1}
